assay-details: in vitro
Type: cell-based, human
condition-notes: human, dermal fibroblasts, IC50 2 h (cytotoxicity), 2 h incubation, MTT
Please go through the items and note down their CC50 at 2 h.
Give the value, in units of µM, as a plain number.

Query block: Name the recorded CC50 at 2 h for CC(=O)OC(CC(=O)O[C@H]1CC[C@H]2[C@@H]3CCC4=CC(=O)CC[C@]4(C)[C@H]3CC[C@]12C)C[N+](C)(C)C (stereo partly drawn) .
Result block: 91.6

Query block: What do you get for C[C@]12CC[C@H]3[C@@H](CCC4=CC(=O)CC[C@@]43C)[C@@H]1CC[C@@H]2OC(=O)OCC[N+](C)(C)C ?
Result block: 966

Query block: // same read-out, input: C[C@]12CC[C@H]3[C@@H](CCC4=CC(=O)CC[C@@]43C)[C@@H]1CC[C@@H]2OC(=O)OCOC(=O)CCCCC[N+](C)(C)C
Result block: 615

Query block: Now the compound C[C@]12CC[C@H]3[C@@H](CCC4=CC(=O)CC[C@@]43C)[C@@H]1CC[C@@H]2OC(=O)Oc1ccc(CC[N+](C)(C)C)cc1
Result block: 544
